assay: Half life in rat at 10 mg/kg, po; assay type: ADME, organism-based; set-up: dose 10 mg/kg, route oral; conditions: in vivo
experimental readout: half-life (min)
// return numeric value only (unit: min, not printed)

Input: Give the reported value of half-life for this record: CC(C)(c1ncc(-c2ccc(Cl)cc2)o1)N1CCN(C[C@@H](O)C[C@@H](Cc2cc3ccncc3o2)C(=O)N[C@H]2c3ccccc3OC[C@H]2O)[C@H](C(=O)NCC(F)(F)F)C1
Output: 48

----------
Entries and their pIC50
molecular target: Cytochrome P450 2C9 (Homo sapiens, UniProt P11712); assay: Inhibitory activity against CYP2C9; format: ADME
Sequence (P11712 whole entry): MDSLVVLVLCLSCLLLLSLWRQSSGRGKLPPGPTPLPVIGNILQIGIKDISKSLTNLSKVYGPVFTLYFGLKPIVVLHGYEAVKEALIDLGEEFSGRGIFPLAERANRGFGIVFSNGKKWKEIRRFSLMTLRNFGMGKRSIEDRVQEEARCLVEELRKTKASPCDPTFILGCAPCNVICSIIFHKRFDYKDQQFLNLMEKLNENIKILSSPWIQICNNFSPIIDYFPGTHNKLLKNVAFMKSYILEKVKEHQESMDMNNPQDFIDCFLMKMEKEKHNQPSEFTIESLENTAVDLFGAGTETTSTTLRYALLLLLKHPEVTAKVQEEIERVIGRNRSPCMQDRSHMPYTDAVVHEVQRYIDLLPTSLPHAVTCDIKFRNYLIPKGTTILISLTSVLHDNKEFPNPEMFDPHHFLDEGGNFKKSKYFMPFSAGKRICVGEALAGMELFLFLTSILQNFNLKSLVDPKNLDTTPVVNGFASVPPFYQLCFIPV
pIC50: −log10 of the molar value.

compound	test result
CC(C)(c1ncc(-c2ccc(Cl)cc2)o1)N1CCN(C[C@@H](O)C[C@@H](Cc2cc3cnccc3s2)C(=O)N[C@H]2c3ccccc3OC[C@H]2O)[C@H](C(=O)NCC(F)(F)F)C1	> 6.00

Please turn your attention to the following entry.
Input: Give the reported value of pIC50 for this record: CC(C)(c1ncc(-c2ccc(Cl)cc2)o1)N1CCN(C[C@@H](O)C[C@@H](Cc2cc3ccncc3o2)C(=O)N[C@H]2c3ccccc3OC[C@H]2O)[C@H](C(=O)NCC(F)(F)F)C1
Output: > 6.00

----------
molecular target: Cytochrome P450 3A4 (Homo sapiens)
Sequence (P08684 whole entry): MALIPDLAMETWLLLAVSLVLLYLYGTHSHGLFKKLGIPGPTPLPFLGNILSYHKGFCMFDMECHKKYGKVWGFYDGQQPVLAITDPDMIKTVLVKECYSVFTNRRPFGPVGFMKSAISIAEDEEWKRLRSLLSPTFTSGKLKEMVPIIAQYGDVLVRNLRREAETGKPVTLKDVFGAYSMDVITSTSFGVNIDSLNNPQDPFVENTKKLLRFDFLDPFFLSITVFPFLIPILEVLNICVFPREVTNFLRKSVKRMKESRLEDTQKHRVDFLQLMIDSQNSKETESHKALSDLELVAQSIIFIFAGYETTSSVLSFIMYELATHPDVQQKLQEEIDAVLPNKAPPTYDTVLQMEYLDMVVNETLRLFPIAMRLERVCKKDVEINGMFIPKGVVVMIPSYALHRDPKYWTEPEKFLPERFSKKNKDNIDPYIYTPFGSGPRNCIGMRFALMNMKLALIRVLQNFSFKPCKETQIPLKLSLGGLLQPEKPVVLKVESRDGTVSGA
Entries and their IC50

compound	IC50
CC(C)(c1ncc(-c2ccc(Cl)cc2)o1)N1CCN(C[C@@H](O)C[C@@H](Cc2cc3ccncc3o2)C(=O)N[C@H]2c3ccccc3OC[C@H]2O)[C@H](C(=O)NCC(F)(F)F)C1	< 1000 nM

Please turn your attention to the following entry.
Input: Answer briefly: IC50 recorded on Cytochrome P450 3A4 (Homo sapiens) for CC(C)(c1ncc(-c2ccc(Cl)cc2)o1)N1CCN(C[C@@H](O)C[C@@H](Cc2cc3cnccc3s2)C(=O)N[C@H]2c3ccccc3OC[C@H]2O)[C@H](C(=O)NCC(F)(F)F)C1
Output: < 1000 nM

----------
assay: Oral bioavailability in rat at 2 mg/kg, po; assay type: ADME, organism-based; details: in vivo
experimental readout: bioavailability
Record the result as a number with its unit.

Input: Give the reported value of bioavailability for this record: CC(C)(c1ncc(-c2ccc(Cl)cc2)o1)N1CCN(C[C@@H](O)C[C@@H](Cc2cc3cnccc3s2)C(=O)N[C@H]2c3ccccc3OC[C@H]2O)[C@H](C(=O)NCC(F)(F)F)C1
Output: 7.3%

----------
assay: Oral bioavailability in rat at 10 mg/kg, po; assay type: ADME, organism-based; settings: in vivo
experimental readout: bioavailability (%)
// return numeric value only (unit: %, not printed)

Input: Give the reported value of bioavailability for this record: CC(C)(c1ncc(-c2ccc(Cl)cc2)o1)N1CCN(C[C@@H](O)C[C@@H](Cc2cc3ccncc3o2)C(=O)N[C@H]2c3ccccc3OC[C@H]2O)[C@H](C(=O)NCC(F)(F)F)C1
Output: 14

----------
assay: Cmax in dog at 10 mg/kg, po; assay type: ADME, organism-based, Canis lupus familiaris; set-up: dose 10 mg/kg, route oral; details: in vivo
experimental readout: Cmax (nM)
// return numeric value only (unit: nM, not printed)

Input: Give the reported value of Cmax for this record: CC(C)(c1ncc(-c2ccc(Cl)cc2)o1)N1CCN(C[C@@H](O)C[C@@H](Cc2cc3ccncc3o2)C(=O)N[C@H]2c3ccccc3OC[C@H]2O)[C@H](C(=O)NCC(F)(F)F)C1
Output: 2100

----------
test: Half life in rat at 2 mg/kg, po; format: ADME, organism-based; set-up: dose 2 mg/kg, route oral; conditions: in vivo
experimental readout: half-life (min)
// return numeric value only (unit: min, not printed)

Input: Give the reported value of half-life for this record: CC(C)(c1ncc(-c2ccc(Cl)cc2)o1)N1CCN(C[C@@H](O)C[C@@H](Cc2cc3cnccc3s2)C(=O)N[C@H]2c3ccccc3OC[C@H]2O)[C@H](C(=O)NCC(F)(F)F)C1
Output: 48

----------
experiment: Cmax in rat at 10 mg/kg, po; type: ADME, organism-based; set-up: dose 10 mg/kg, route oral; settings: in vivo
experimental readout: Cmax (nM)
// return numeric value only (unit: nM, not printed)

Input: Give the reported value of Cmax for this record: CC(C)(c1ncc(-c2ccc(Cl)cc2)o1)N1CCN(C[C@@H](O)C[C@@H](Cc2cc3ccncc3o2)C(=O)N[C@H]2c3ccccc3OC[C@H]2O)[C@H](C(=O)NCC(F)(F)F)C1
Output: 180

----------
Observed pIC50 values for Human immunodeficiency virus type 1 protease (Human immunodeficiency virus 1) are listed in what follows.
A value of pIC50 is the negative decimal logarithm of a concentration given in moles per litre.

Input: Answer briefly: pIC50 recorded on Human immunodeficiency virus type 1 protease (Human immunodeficiency virus 1) for O=C(N[C@H]1c2ccccc2OC[C@H]1O)[C@H](Cc1cc2cnccc2s1)C[C@H](O)CN1CCN(Cc2ccc(-c3ccc(Cl)cc3)o2)C[C@H]1C(=O)NCC(F)(F)F
Output: 10.52

Input: Answer briefly: pIC50 recorded on Human immunodeficiency virus type 1 protease (Human immunodeficiency virus 1) for Cc1ccncc1-c1ccc(C[C@H](C[C@H](O)CN2CCN(C(C)(C)c3ncc(-c4ccc(Cl)cc4)s3)C[C@H]2C(=O)NCC(F)(F)F)C(=O)N[C@H]2c3ccccc3OC[C@H]2O)o1
Output: 10.52

Input: Answer briefly: pIC50 recorded on Human immunodeficiency virus type 1 protease (Human immunodeficiency virus 1) for Cc1ccncc1-c1ccc(C[C@H](C[C@H](O)CN2CCN(Cc3ccc(-c4ccc(Cl)cc4)o3)C[C@H]2C(=O)NCC(F)(F)F)C(=O)N[C@H]2c3ccccc3OC[C@H]2O)o1
Output: 10.10

----------
Observed IC50 values for Cytochrome P450 2D6 (Homo sapiens) are listed in what follows.

Input: Give the reported value of IC50 for this record: CC(C)(c1ncc(-c2ccc(Cl)cc2)o1)N1CCN(C[C@@H](O)C[C@@H](Cc2cc3ccncc3o2)C(=O)N[C@H]2c3ccccc3OC[C@H]2O)[C@H](C(=O)NCC(F)(F)F)C1
Output: < 1000 nM

Input: Give the reported value of IC50 for this record: CC(C)(c1ncc(-c2ccc(Cl)cc2)o1)N1CCN(C[C@@H](O)C[C@@H](Cc2cc3cnccc3s2)C(=O)N[C@H]2c3ccccc3OC[C@H]2O)[C@H](C(=O)NCC(F)(F)F)C1
Output: < 1000 nM

----------
assay: Plasma clearance in rat at 10 mg/kg, po; format: ADME, organism-based; design: dose 10 mg/kg, route oral
experimental readout: CL/F (mL/min/kg)
// return numeric value only (unit: mL/min/kg, not printed)

Input: Give the reported value of CL/F for this record: CC(C)(c1ncc(-c2ccc(Cl)cc2)o1)N1CCN(C[C@@H](O)C[C@@H](Cc2cc3ccncc3o2)C(=O)N[C@H]2c3ccccc3OC[C@H]2O)[C@H](C(=O)NCC(F)(F)F)C1
Output: 98

----------
assay: Plasma clearance in rat at 2 mg/kg, po; type: ADME, organism-based; parameters: dose 2 mg/kg, route oral
experimental readout: CL/F (mL/min/kg)
// return numeric value only (unit: mL/min/kg, not printed)

Input: Give the reported value of CL/F for this record: CC(C)(c1ncc(-c2ccc(Cl)cc2)o1)N1CCN(C[C@@H](O)C[C@@H](Cc2cc3cnccc3s2)C(=O)N[C@H]2c3ccccc3OC[C@H]2O)[C@H](C(=O)NCC(F)(F)F)C1
Output: 111

----------
assay: Plasma clearance in dog at 10 mg/kg, po; format: ADME, organism-based, Canis lupus familiaris; set-up: dose 10 mg/kg, route oral
experimental readout: CL/F

Input: Give the reported value of CL/F for this record: CC(C)(c1ncc(-c2ccc(Cl)cc2)o1)N1CCN(C[C@@H](O)C[C@@H](Cc2cc3ccncc3o2)C(=O)N[C@H]2c3ccccc3OC[C@H]2O)[C@H](C(=O)NCC(F)(F)F)C1
Output: 23 mL/min/kg
